Measured pIC50 by item
target: VEGF receptor KDR (VEGFR2) (Homo sapiens); assay: In vitro receptor tyrosine kinase assay (VEGF receptor KDR), DELFIA; details: recombinant GST-VEGFR2 (806-1356), ATP 0.6 uM, enzyme 5 nM; read-out: VEGFR_IC50_UM
When answering, recall that pIC50 equals minus log10 of the concentration in mol/L, and write that number alone.

CNCC(=O)N1CCN(Cc2ccc(-c3cc4nccc(Oc5ccc(NC(=O)NC6CC6)cc5F)c4s3)nc2)CC1 = 8.30
C[C@@H]1CN(Cc2ccc(-c3cc4nccc(Oc5ccc(NC(=O)NC6CC6)cc5F)c4s3)nc2)CCN1C(=O)CO = 8.15
CC(=O)OC(C)(C)C(=O)N1CCN(Cc2ccc(-c3cc4nccc(Oc5ccc(NC(=O)NC6CC6)cc5F)c4s3)nc2)CC1 = 8.40
COCCOCCOC(=O)N1CCN(Cc2ccc(-c3cc4nccc(Oc5ccc(NC(=O)NC6CC6)cc5F)c4s3)nc2)CC1 = 7.80
CN(C)CCN(C)C(=O)C1CCCN(Cc2ccc(-c3cc4nccc(Oc5ccc(NC(=O)NC6CC6)cc5F)c4s3)nc2)C1 (stereo not shown) = 8.10

Request: Request the reported pIC50 associated with COCCOCCOCC(=O)NC1CCN(Cc2ccc(-c3cc4nccc(Oc5ccc(NC(=O)NC6CC6)cc5F)c4s3)nc2)CC1
Result: 7.77

Request: What do you have for COCC(=O)N1CCN(Cc2ccc(-c3cc4nccc(Oc5ccc(NC(=O)NC6CC6)cc5F)c4s3)nc2)CC1 ?
Result: 8.22

---

molecular target: VEGF receptor KDR (VEGFR2) (Homo sapiens, UniProt P35968); test: In vitro receptor tyrosine kinase assay (VEGF receptor KDR), DELFIA; conditions: recombinant GST-VEGFR2 (806-1356), ATP 0.6 uM, enzyme 5 nM; read-out: VEGFR_IC50_UM
Sequence (P35968 806-1356): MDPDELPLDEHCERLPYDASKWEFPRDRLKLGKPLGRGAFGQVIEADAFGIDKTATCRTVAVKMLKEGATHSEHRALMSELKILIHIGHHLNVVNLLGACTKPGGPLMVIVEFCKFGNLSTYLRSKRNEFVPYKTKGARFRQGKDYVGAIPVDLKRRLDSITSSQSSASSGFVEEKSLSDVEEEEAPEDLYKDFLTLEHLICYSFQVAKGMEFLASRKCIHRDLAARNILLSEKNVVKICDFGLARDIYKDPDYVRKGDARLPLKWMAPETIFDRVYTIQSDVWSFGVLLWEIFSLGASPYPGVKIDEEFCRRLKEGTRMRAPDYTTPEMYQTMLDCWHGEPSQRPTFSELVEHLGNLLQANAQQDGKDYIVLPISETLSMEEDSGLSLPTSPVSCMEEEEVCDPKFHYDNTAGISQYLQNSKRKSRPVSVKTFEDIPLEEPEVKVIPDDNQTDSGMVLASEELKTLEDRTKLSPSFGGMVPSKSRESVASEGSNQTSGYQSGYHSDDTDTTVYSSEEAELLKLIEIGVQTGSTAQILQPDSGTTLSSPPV
measurement.name: pIC50
When answering, recall that pIC50 equals minus log10 of the concentration in mol/L, and write that number alone.

Answered cases to consult:
C[C@@H](O)CN1CCN(Cc2ccc(-c3cc4nccc(Oc5ccc(NC(=O)NC6CC6)cc5F)c4s3)nc2)CC1 = 8.30
CN(CCO)C(=O)[C@@H]1CCCN(Cc2ccc(-c3cc4nccc(Oc5ccc(NC(=O)NC6CC6)cc5F)c4s3)nc2)C1 = 8.22
CC(C)C(=O)OCC(=O)N1CCN(Cc2ccc(-c3cc4nccc(Oc5ccc(NC(=O)NC6CC6)cc5F)c4s3)nc2)CC1 = 7.70
O=C(Nc1ccc(Oc2ccnc3cc(-c4ccc(CN5CCCC(C(=O)NC[C@@H](O)CO)C5)cn4)sc23)c(F)c1)NC1CC1 (stereo partly drawn) = 7.96

Request: Request the reported pIC50 associated with O=C(Nc1ccc(Oc2ccnc3cc(-c4ccc(CN5CCN(C(=O)COC(=O)CCCC[C@H]6SC[C@H]7NC(=O)N[C@H]76)CC5)cn4)sc23)c(F)c1)NC1CC1
Result: 7.68

Request: What do you have for CC(=O)OCC(=O)OCC(=O)N1CCN(Cc2ccc(-c3cc4nccc(Oc5ccc(NC(=O)NC6CC6)cc5F)c4s3)nc2)CC1 ?
Result: 8.30
